- target or system: BRD4(49-170) bromodomain (Homo sapiens (Human))
- experiment description: BRD4 AlphaScreen Assay
- experimental context: binding to biotin-H4(1-21) Ac-K5/8/12/16 peptide
value type: pIC50
One number for each entry, as −log10 of the molar value.

>>> assay_result("CNC(=O)N1CCn2c(C3CC3)nc(-c3cccc4nc(-c5cnn(C)c5)c(C(F)F)cc34)c2C1")
4.76

Each compound below has a reported value. Please supply its pIC50.
1. CNC(=O)N1CCn2c(C3CC3)nc(-c3cccc4nc(-c5cn(C)nc5C)c(C(F)(F)F)cc34)c2C1
2. CNC(=O)N1CCn2c(C3CCC(F)(F)CC3)nc(-c3c(F)ccc4cc(-c5cn(C)nc5C)ncc34)c2C1
3. CNC(=O)N1CCn2c(C3CCC(F)(F)CC3)nc(-c3c(F)ccc4cc(C5CCOCC5)ncc34)c2C1

4.61
4.98
4.99

###

- target or system: BRD4(49-170) bromodomain (Homo sapiens (Human), UniProt O60885)
- experiment description: BRD4 AlphaScreen Assay
- experimental context: binding to biotin-H4(1-21) Ac-K5/8/12/16 peptide
Please respond with reported IC50 for every item in the list.

>>> assay_result("CNC(=O)N1CCn2c(C3CC3)nc(-c3cccc4nc(N5CC6(COC6)C5)c(C#N)cc34)c2C1")
"> 25 µM"
>>> assay_result("CNC(=O)N1CCn2c(C3CCOCC3)nc(-c3cccc4nc(-c5cnn(C)c5)c(C(F)(F)F)cc34)c2C1")
"13.7 µM"
>>> assay_result("CC(=O)N1CCn2c(C3CC3)nc(N3CCCc4cc(-c5cnn(C6CCOCC6)c5)ccc43)c2C1")
"13.8 µM"
>>> assay_result("CNC(=O)N1CCn2c(C3CC3)nc(-c3c(F)ccc4cc(-c5cn(C)nc5C)ncc34)c2C1")
"17.1 µM"
>>> assay_result("CNC(=O)N1CCn2c(C3CC3)nc(-c3c(F)ccc4cc(-c5cnc(C)s5)ncc34)c2C1")
"7.06 µM"

Dear reader, for each entry below, please note its IC50.
1. CNC(=O)N1CCn2c(C3CCC(F)(F)CC3)nc(-c3cccc4nc(-c5cnn(C)c5)c(C(F)(F)F)cc34)c2C1
2. CC(=O)N1CCn2c(C3CC3)nc(N3CCCc4cc(-c5cnn(CCO)c5)ccc43)c2C1

13.5 µM
> 25 µM

###

- target or system: BRD4(49-170) bromodomain (Homo sapiens (Human), UniProt O60885)
- experiment description: BRD4 AlphaScreen Assay
- experimental context: binding to biotin-H4(1-21) Ac-K5/8/12/16 peptide
Mark label 1 only when IC50 stays strictly below 10 µM. Values equal to the cut-off are label 0.

>>> category("CC(=O)N1CCn2c(C3CC3)nc(-c3ccc4c(c3)c(-c3c(C)noc3C)nn4C)c2C1")
"label 0"
>>> category("CNC(=O)N1CCn2c(C3CC3)nc(-c3csc4cc(-c5cnn(C)c5)ncc34)c2C1")
"label 0"

API: query returns whether the compound falls strictly under 10 µM in IC50. Query: CNC(=O)N1CCn2c(C3CN(C(C)=O)C3)nc(-c3ccc4c(c3)c(-c3cnn(C)c3)nn4C)c2C1 label 0

In plain terms, does CNC(=O)N1CCn2c(C3CCOCC3)nc(-c3cccc4nc(-c5cnn(C)c5)c(C(F)F)cc34)c2C1 come in under 10 µM for IC50? label 0

Identify whether the compound CNC(=O)N1CCn2c(C3CC(F)(F)C3)nc(-c3c(F)ccc4cc(-c5cn(C)nc5C)ncc34)c2C1 records IC50 below 10 µM. label 0

State whether 10 µM exceeds IC50 recorded for CNC(=O)N1CCn2c(C3CC(F)(F)C3)nc(-c3cccc4nc(-c5cnn(C)c5)c(C#N)cc34)c2C1 . label 0

Criterion: IC50 strictly below 10 µM. Is it met by CNC(=O)c1nc(-c2ccc3c(c2)c(-c2cnn(C)c2)nn3C)c2n1CCN(C(C)=O)C2 ? label 1

State whether 10 µM exceeds IC50 recorded for CC(=O)N1CCn2c(C3CC3)nc(-c3ccc4c(c(-c5cnn(C)c5)nn4C)c3F)c2C1 . label 0

hey, is IC50 for CNC(=O)N1CCn2c(C3CC3)nc(-c3cccc4cc(N5CCOCC5)ncc34)c2C1 lower than 10 µM or not? label 0

Is it true that IC50 reported for CNC(=O)N1CCn2c(C3CC3)nc(-c3cccc4nc(N5CCOCC5)c(C#N)cc34)c2C1 is less than 10 µM? label 1

Consider CNC(=O)N1CCn2c(C3CC3)nc(-c3c[nH]c4cc(-c5cnn(C)c5)ncc34)c2C1 . Does its IC50 lie strictly below 10 µM? label 0

IC50 strictly < 10 µM for this compound? CNC(=O)N1CCn2c(C3CC3)nc(N3CCCc4nc(-c5cnn(C)c5)c(C(F)(F)F)cc43)c2C1 label 0

In the record for CC(=O)N1CCn2c(C3CC3)nc(N3CCCc4cc(-c5ccnc(C(F)(F)F)c5)ccc43)c2C1 , is IC50 less than 10 µM? label 0

###

- target or system: GST-CBP(1081-1197) bromodomain (Homo sapiens (Human))
- Sequence (Q92793 1081-1197): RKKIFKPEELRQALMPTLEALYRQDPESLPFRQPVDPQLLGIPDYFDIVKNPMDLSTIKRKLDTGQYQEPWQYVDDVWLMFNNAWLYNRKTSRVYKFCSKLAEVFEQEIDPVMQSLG
- experiment description: CBP AlphaScreen Assay
- experimental context: binding to biotin-H4(1-21) Ac-K5/8/12/16 peptide
value type: IC50 (nM)
Give bare numbers, in nM.

Answered cases to consult:
>>> assay_result("CNC(=O)N1CCn2c(C3CC3)nc(-c3cccc4cc(N5CCOCC5)ncc34)c2C1")
50
>>> assay_result("CC(=O)N1CCn2c(C3CCOC3)nc(-c3cc4c(-c5cnn(C)c5)nn(C)c4cc3F)c2C1 (stereo not drawn)")
147

Consider now this further compound.
Memo: CNC(=O)N1CCn2c(C3CC3)nc(-c3c(F)ccc4cc(C5CCOCC5)ncc34)c2C1 , reported IC50: 22

###

- target or system: BRD4(49-170) bromodomain (Homo sapiens (Human))
- experiment description: BRD4 AlphaScreen Assay
- experimental context: binding to biotin-H4(1-21) Ac-K5/8/12/16 peptide
Give IC50 for every item shown.
Answers are plain numbers, in µM.

Please review the entries below; each comes with its answer.
>>> assay_result("CNC(=O)N1CCn2c(C3CCC(F)(F)CC3)nc(-c3cccc4cc(-c5ccn(C)n5)ncc34)c2C1 [Example 80]")
11.9
>>> assay_result("CNC(=O)N1CCn2c(C3CCC(F)(F)CC3)nc(-c3cccc4cc(-c5cnc(C)s5)ncc34)c2C1 [Example 97]")
3.32
>>> assay_result("CNC(=O)N1CCn2c(C3CC(F)(F)C3)nc(-c3cccc4cc(-c5ccn(C)n5)ncc34)c2C1 [Example 79]")
14.8
>>> assay_result("CNC(=O)N1CCn2c(C3CC(F)(F)C3)nc(-c3c(F)ccc4cc(C5CCOCC5)ncc34)c2C1 [Example 91]")
22.4

Count: 2. Required value per item: IC50.
1. CC(=O)N1CCn2c(C3CC3)nc(-c3cc4c(-c5cnn(C)c5)nn(C)c4cc3F)c2C1 [Example 28]
2. CNC(=O)N1CCn2c(C3CC3)nc(-c3cccc4nc(-c5cnc(C)s5)c(C#N)cc34)c2C1 [Example 100]

1. 18.6
2. 7.95

###

- target or system: BRD4(49-170) bromodomain (Homo sapiens (Human))
- experiment description: BRD4 AlphaScreen Assay
- experimental context: binding to biotin-H4(1-21) Ac-K5/8/12/16 peptide
value type: IC50

# example entries with known answers
>>> assay_result("CNC(=O)N1Cc2c(-c3cccc4cc(-c5cnn(C)c5)ncc34)nc(C3CC3)n2CC1C (stereo not shown) [Example 125]")
"> 10 µM"
>>> assay_result("CC(=O)N1CCn2c(C3CC3)nc(-c3ccc4c(c3)c(-c3cnn(C)c3)nn4C)c2C1 [Example 1]")
"> 10 µM"
>>> assay_result("CC(=O)N1CCn2c(C3CC3)nc(-c3ccc4c(cnn4C)c3)c2C1 [Example 43]")
"> 25 µM"

Here is another molecule to look at.
Sample CC(=O)N1CCn2c(C3CCC3)nc(-c3ccc4c(c3)c(-c3cnn(C)c3)nn4C)c2C1 [Example 46] ; IC50 observed: > 10 µM

###

- target or system: BRD4(49-170) bromodomain (Homo sapiens (Human), UniProt O60885)
- experiment description: BRD4 AlphaScreen Assay
- experimental context: binding to biotin-H4(1-21) Ac-K5/8/12/16 peptide
value type: IC50

Known results for compounds:
>>> assay_result("CC(=O)N1CCn2c(C3CC3)nc(N3CCCc4cc(-c5ccncc5)ccc43)c2C1")
"> 25 µM"
>>> assay_result("CC(=O)N1CCn2c(C3CCNCC3)nc(-c3ccc4c(c3)c(-c3cnn(C)c3)nn4C)c2C1")
"> 10 µM"
>>> assay_result("CNC(=O)N1CCn2c(C3CCOCC3)nc(-c3cccc4cc(C5CCOCC5)ncc34)c2C1")
"> 25 µM"
>>> assay_result("CC(=O)N1CCC(c2nc(-c3ccc4c(c3)c(-c3cnn(C)c3)nn4C)c3n2CCN(C(C)=O)C3)CC1")
"> 10 µM"
>>> assay_result("CC(=O)N1CCn2c(C3CC3)nc(-c3cnc4c(c3)c(-c3cnn(C)c3)nn4C)c2C1")
"> 25 µM"
>>> assay_result("CNC(=O)N1CCn2c(C3CN(C)C3)nc(-c3ccc4c(c3)c(-c3cnn(C)c3)nn4C)c2C1")
"> 10 µM"

Dear colleague, could you please provide IC50 for the compounds listed below?
1. CC(=O)N1CCn2c(C3CC3)nc(-c3ccnc4c3cc(-c3cnn(C)c3)n4C)c2C1
2. CNC(=O)N1CCn2c(C3CCC(F)(F)CC3)nc(-c3cccc4cc(N5CCOCC5)ncc34)c2C1
3. CC(=O)N1CCn2c(C3CC3)nc(N3CCCc4cc(-c5cnn(C6CCC6)c5)ccc43)c2C1

1. > 25 µM
2. > 25 µM
3. > 25 µM
